Quick reference: IC50 of the listed items.
target: UniProt:P56817; assay: In Vitro BACE Cell-based Assay (HEK cell assay): Aβ40 in conditioned medium of cells stably expressing Amyloid Precursor Protein, sandwich ELISA; conditions: Table IV, class symbols; read-out: HEK cell assay

Field: example entries. Status: answers known.
[[record]]
compound = "COc1ccc2c(c1)[C@]1(COC(N)=N1)c1cc(NC(=O)c3ccc(Cl)nc3)ccc1O2 [compound 617]"
test_value = "1000 to 5000 nM"

[[record]]
compound = "CC(C)(C)COc1ccc2c(c1)[C@@]1(COC(N)=N1)c1cc(-c3ccncc3)cnc1O2 [Example 808]"
test_value = "< 100 nM"

[[record]]
compound = "COc1ccc2c(c1)[C@]1(COC(N)=N1)c1cc(NC(=O)c3ccccn3)ccc1O2 [compound 615]"
test_value = "100 to 1000 nM"


GET IC50 where system = UniProt:P56817 and item = CC(C)(C)C#Cc1cnc2c(c1)[C@]1(COC(N)=N1)c1cc(-c3cnccn3)ccc1O2 [compound 654]
< 100 nM

* * *

target: BACE1 (Homo sapiens); experiment: In Vitro BACE Cell-based Assay (HEK cell assay): Aβ40 in conditioned medium of cells stably expressing Amyloid Precursor Protein, sandwich ELISA; settings: HEK cells; read-out: HEK cell assay
reported.endpoint: IC50

GET IC50 where system = BACE1 (Homo sapiens) and item = `COCC[C@@H]1CN(c2ccc3c(c2)[C@]2(COC(N)=N2)c2cc(-c4cccnc4)ccc2O3)CCO1`
0.1 to 1 µM

GET IC50 where system = BACE1 (Homo sapiens) and item = `NC1=N[C@@]2(CO1)c1cc(-c3cncnc3)ccc1Oc1ccc([C@@H]3CCOC3)cc12`
0.1 to 1 µM

GET IC50 where system = BACE1 (Homo sapiens) and item = `CC(C)(C)/C=C/c1cc2c(cn1)Oc1ccc(-c3cccnc3F)cc1[C@@]21COC(N)=N1`
< 0.1 µM

GET IC50 where system = BACE1 (Homo sapiens) and item = `CC(C)(C)CCc1cc2c(cn1)Oc1ccc(-c3cncnc3)cc1[C@@]21COC(N)=N1`
< 0.1 µM

GET IC50 where system = BACE1 (Homo sapiens) and item = `CC1(C#Cc2cc(F)c3c(c2)[C@]2(COC(N)=N2)c2cc(-c4cncnc4)ccc2O3)COC1`
< 0.1 µM

GET IC50 where system = BACE1 (Homo sapiens) and item = `CC1(COc2cnc3c(c2)[C@]2(COC(N)=N2)c2cc(-c4ccccc4)ccc2O3)COC1`
< 0.1 µM

* * *

biological target: BACE1 (Homo sapiens, UniProt P56817); experiment: In Vitro Enzymatic BACE FRET (Fluorescence Resonance Energy Transfer) Assay; type: biochemical; conditions: read-out: BACE1 FRET assay
Sequence (P56817 46-501, species assumed): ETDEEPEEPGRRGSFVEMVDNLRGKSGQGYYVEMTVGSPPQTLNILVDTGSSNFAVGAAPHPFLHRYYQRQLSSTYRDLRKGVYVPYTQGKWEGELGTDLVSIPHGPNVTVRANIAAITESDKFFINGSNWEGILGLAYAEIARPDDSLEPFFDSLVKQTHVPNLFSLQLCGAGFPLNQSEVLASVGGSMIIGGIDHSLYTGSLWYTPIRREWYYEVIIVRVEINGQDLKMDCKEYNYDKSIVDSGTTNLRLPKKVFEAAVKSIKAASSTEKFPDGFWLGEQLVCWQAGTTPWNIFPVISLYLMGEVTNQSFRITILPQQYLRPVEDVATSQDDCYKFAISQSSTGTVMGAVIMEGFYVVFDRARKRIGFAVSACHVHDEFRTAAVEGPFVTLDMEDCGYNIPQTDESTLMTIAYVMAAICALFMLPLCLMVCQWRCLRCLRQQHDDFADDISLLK
Quick reference: IC50 of the listed items.

Field: example entries. Status: answers known.
[[record]]
structure_smiles_string = "NC1=N[C@@]2(CO1)c1cc(-c3cccnc3)ccc1Oc1ccc(-c3cscn3)cc12"
reported_endpoint = "IC50"
test_value = "< 100 nM"

[[record]]
structure_smiles_string = "CC(C)(C)COc1ccc2c(c1)[C@@]1(COC(N)=N1)c1cc(-c3ccc(F)nc3)cnc1O2"
reported_endpoint = "IC50"
test_value = "< 100 nM"

[[record]]
structure_smiles_string = "CC1(C)CC(c2ccc3c(c2)[C@]2(COC(N)=N2)c2cc(-c4cncnc4)ccc2O3)=CCO1"
reported_endpoint = "IC50"
test_value = "< 100 nM"


Look up and state reported IC50 for `CC(C)(C)COc1ccc2c(c1)[C@]1(COC(N)=N1)c1cc(C#N)ccc1O2`
100 to 1000 nM

Look up and state reported IC50 for `CC(C)(F)COc1cnc2c(c1)[C@]1(COC(N)=N1)c1cc(-c3ccc(F)nc3)ccc1O2`
< 100 nM

Look up and state reported IC50 for `COc1ccc2c(c1)[C@@]1(COC(N)=N1)c1cc(Br)cnc1O2`
> 5000 nM

Look up and state reported IC50 for `NC1=N[C@]2(CO1)c1cc(C3=CCOCC3)ccc1Oc1ccc(C3CC3)cc12`
100 to 1000 nM

Look up and state reported IC50 for `CC(C)(C)COc1ccc2c(c1)[C@]1(COC(N)=N1)c1cc(-c3ccc(Br)nn3)ccc1O2`
100 to 1000 nM
